# Test system: MS2 coat protein
# EXPERIMENT SUMMARY: apparent KD of MS2 coat protein; designed switch direction (-1 OFF switch, 1 ON switch): -1; higher = weaker reporter binding
# EXPERIMENTAL CONTEXT: input ligand: FMN 200 uM
Assign Fulfilled whenever apparent KD of MS2 coat protein does not fall below 200 nM; assign Not fulfilled whenever it does.

>>> assigned_category("CAAAGUUGGUAAGGAUAUCCCACAUUAUUCUGACCCGUGCAAGCUACAUGAGGAUCACCCAUGUGGGAGAAGGUGCGUUAAAGA [Design 1] (Eterna round: R96, puzzle: Exclusion NG 2)")
"Not fulfilled"
>>> assigned_category("CGCAAAACCGUAAGGAUAUCCUUUCCGAAAGGGACGGAGAAGGUACAUGAGGAUCACCCAUGUCCUCCGAGCUG [Eternabot (Original) Solution 18] (Eterna round: R97, puzzle: Brourd's mod of Exclusion 4)")
"Not fulfilled"
>>> assigned_category("GCUGCACAUGUAGGAUAUCUGCACGAUUAGUGCAGAGAAGGACAUGAGGAUCACCCAUGUAGAUCAGCAGCAAUUAAUUUAAUU [ENG1/6-A1] (Eterna round: R96, puzzle: Exclusion NG 1)")
"Fulfilled"
>>> assigned_category("UAUUAGCAAGUGAGGUCCCACAUGAGGAUCACCCAUGUGCUCGUCUUAUAAGGUACUGUGACGAGAGUCACGGUACC [Mat - Sensor, turn-off var - Eli Mod - D52] (Eterna round: R97, puzzle: Sensor, turn-off variant 1)")
"Not fulfilled"
>>> assigned_category("CAGCUGAAUGUGAGGAUAUGUCUAGCUGCGGCUAGACAGAAGGCACAUGAGGAUCACCCAUGUCUCAACAGCUG [BmEx4/2-D3] (Eterna round: R97, puzzle: Brourd's mod of Exclusion 4)")
"Fulfilled"
>>> assigned_category("GGUUGGCGAGGAUAUACAUGAGGAUCACCCAUGUGGUCCUGAAAAAAAAAAAACCUUUGUAGAAGGCGCGGGUC [salish99_ex3_r4_035] (Eterna round: R97, puzzle: Exclusion 3)")
"Fulfilled"
>>> assigned_category("UAUGAGCUAGGAUAUGCUUUGGGCUCGCUUUCCUUCGAUAAACUUGAGGAUCACCCAAGUAGAAGGAGCUUGUA [Mod 32 - Jieux - Exclusion 2] (Eterna round: R97, puzzle: Exclusion 2)")
"Not fulfilled"
>>> assigned_category("CAUUAUGUUGAGGAUAUGCGCCGGAAAACUGACGCAGAAGGCGACACAUGAGGAUCACCCAUGUCAGUUCGCGA [salish99_ex6_r004_424] (Eterna round: R97, puzzle: Exclusion 6)")
"Not fulfilled"
>>> assigned_category("CUUGUUUAUGUAGGAUAUGCCUGGCGUGCCUUUGCAGAAGGACAUGAGGAUCACCCAUGUGGUAUGAGGCUUACCCUUGUCGCC [salish99_ExNG1_r04_121] (Eterna round: R96, puzzle: Exclusion NG 1)")
"Not fulfilled"
>>> assigned_category("UUUUUAUAUGAAGGAUAUACUUAACAUGAGGAUCACCCAUGUGGUGUUGUGAGUGAGUGAGUUUAGUAGAAGGUCAAUUAGUAU [JMF's solution 101] (Eterna round: R96, puzzle: Exclusion NG 2)")
"Fulfilled"
>>> assigned_category("AUGGGUCCUCACGGAGCUACAUGAGGAUCACCCAUGUGGAUUGAGGAUAUCCACUGCCGACGGCUGGAGAAGGCAGUUUACUGU [Ex NG3 #94] (Eterna round: R96, puzzle: Exclusion NG 3)")
"Not fulfilled"
>>> assigned_category("AGAGAAUACUCAGGAUAUCUGAAUAGAAAGAGAAGAGAAGGGAGACAUGAGGAUCACCCAUGUGAAGUCUUGAGGCUGCAUGGA [Prohibition 25 - Jieux - Exclusion NG 1] (Eterna round: R96, puzzle: Exclusion NG 1)")
"Not fulfilled"
>>> assigned_category("AUAAUGUAAGGAUAUCAGUCGUAAUUUAAUUUAAUAUCGACUGAGAAGGUACAUGAGGAUCACCCAUGUGGUCA [E4/9-B2] (Eterna round: R97, puzzle: Exclusion 4)")
"Not fulfilled"
>>> assigned_category("UCGAUGUGAGGAUAUAUAUGCAGUAAUCCUUAUAUUUUAUAACUUGAGGAUCACCCAAGUAGAAGGCGCGACGU [JR_Ex2_Sub058] (Eterna round: R97, puzzle: Exclusion 2)")
"Not fulfilled"
>>> assigned_category("UCCAGUAUAUGGAGAUUUUACAUGAGGAUCACCCAUGUUGGGACAGCUUUUUGCUUGUCUUAUCCUACUUCGUGUGU [Design #4] (Eterna round: R97, puzzle: Sensor, turn-off variant 1)")
"Not fulfilled"
>>> assigned_category("GCAAAAUAUCAGGAUAUGACUAAUUGCGUUAAGUCAGAAGGGAUAACAUGAGGAUCACCCAUGUGAUAUAGUGU [JR_Ex6_Sub030] (Eterna round: R97, puzzle: Exclusion 6)")
"Fulfilled"
>>> assigned_category("AAUUAACAUGUAGGAUAUCUGCACGUUUAGUGCAGAGAAGGACAUGAGGAUCACCCAUGUAUAGCGACUUCGGUCGCAAUAAUU [ENG1/2-B2] (Eterna round: R96, puzzle: Exclusion NG 1)")
"Fulfilled"
>>> assigned_category("AGUGUGAGGCAGGAUAUGCUAUAUGUACGUAAUGCAGAAGGGUCUACAUGAGGAUCACCCAUGUGUGCGGUUGA [Ex6 #8] (Eterna round: R97, puzzle: Exclusion 6)")
"Fulfilled"

====

Quick list: apparent KD of MS2 coat protein per entry.
# System: MS2 coat protein
# EXPERIMENT SUMMARY: apparent KD of MS2 coat protein, switch OFF state (with FMN for OFF switches, without FMN for ON switches); designed switch direction (-1 OFF switch, 1 ON switch): -1; higher = weaker reporter binding
# EXPERIMENTAL CONTEXT: FMN input: 0 or 200 uM; Eterna round: R93 (includes R88 designs)
READOUT: apparent KD of MS2 coat protein (nM)

>>> measured_value("AGAACGUGAGGAUAUACUAACAAACCUCAACAAACAAACAGACAUGAGGAUCACCCAUGUAGAAGGCACAAAAA [EXC - 2]")
27.2
>>> measured_value("AUCUUGUGAGGAUAUGCAUGAAAUGAAGUGAAAGAAAAGAAGCAGAAGGCACAUGAGGAUCACCCAUGUUAGAA [EteRNA is fun!]")
62.2
>>> measured_value("AAAAAUGGAGGAUAUACAUGAGGAUCACCCAUGUGAAACAAAACAAAACACAAAAAAAGUAGAAGGCCAAAAAA [Gilly Gone Silly 4 - Jieux - Exclusion 3]")
38.2
>>> measured_value("AAAAAUGGAGGAUAUACAUGAGGAUCACCCAUGUUAGAACAAAAAAAAGGGAAAGAAAGUAGAAGGCCAUAAAA [Ex 3 May 25]")
49.1
>>> measured_value("AAGAACAGAGGAUAUACAUGAAAGAAAGAAAAGAAAAGAAAACAUGAGGAUCACCCAUGUAGAAGGCUGAAGAA [EteRNA is fun!]")
25.1
>>> measured_value("AAGGGACAUGAGGAUCACCCAUGUGAGGAUAUGAUGCGAAUAAAGAAAGAAGAAAGCAUCAGAAGGCACACCAA [58%, Disencluded 3, 7]")
146
>>> measured_value("AACAAUACAGGAUAUACAUGAGGAUCACCCAUGUGAGAAUUAAGUGGCGUACCACAAGGUAGAAGGGUAAUGGA [Ruby 2]")
34.7
>>> measured_value("AAAAGGGCAGGAUAUGCGUACUCACGGAAAAACUGGAUGGUACAUGAGGAUCACCCAUGUAGAAGGGCUAAAAA [Dora Explored 17 - Jieux - Exclusion 2]")
40.9
>>> measured_value("AAGGGACAUGAGGAUCACCCAUGUCAGGAUAUGCUAUGGAAAAUAAAAAUAAAACAUAGCAGAAGGGAUAAAAA [Denovo 3]")
45.4
>>> measured_value("GAAAAGUGAGGAUAUGCGAAGGCGUCUGAUAGACGAGGCUAGCAGAAGGCACAUGAGGAUCACCCAUGUGGGAG [Mat - Exclusion 4 - Eli mod - D92]")
76.4
>>> measured_value("AAAACUAGAGGAUAUACGAACAUGUCAAAAGACGUGAAGGGACAUGAGGAUCACCCAUGUAGAAGGCUAGAAAA [JL Stem Breaker 11]")
71.9
>>> measured_value("GACUAGUCAGGAUAUACGAACAUGUCAAAAGACGUGAAGGAACAUGAGGAUCACCCAUGUAGAAGGGACUAGCA [Diamond 19]")
17.7
>>> measured_value("UAUGAGCGAGGAUAUGCUUGGGACGUCGUUCUUGCGGCGAGACAUGAGGAUCACCCAUGUAGAAGGCGCGAGCG [Harteesian Twist]")
16.7

====

# Test system: K4 kissing-loop RNA reporter;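 further: bound reporter read as fluorescence of individual clusters on recovered sequencing chips by microscopy, with normalized cluster intensities fitted with a binding model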
# EXPERIMENT SUMMARY: apparent KD of K4 kissing-loop reporter; higher = weaker reporter binding
# EXPERIMENTAL CONTEXT: Eterna round: R107; input ligand: arginine 13.2 mM
Quick list: apparent KD of K4 kissing-loop reporter per entry.
READOUT: apparent KD of K4 kissing-loop reporter (nM)

>>> measured_value("UUUUGCGCGUACGAUACCAGUAUCUGUAAGAGUGAUGUUCAGCGCUGAAGACAGCAGCGAUACCCUUGGCAGCGUUACAUGCUAG [theeternabot_sameState_KL_Theo_B_22]")
422
>>> measured_value("GGGUGGCAGACGGCCGCCACUCUUAGCAGCCAGUGAGUGAUGUUCGUGGCGGAGUGAUGUUCCUAGAGGACCGGGUUUGUUGUUC [Same State Tryptophan B GF 20]")
259
>>> measured_value("ACGUUCGGAACGGCCGCCACUAUGGGCAGUGAUGUUGCCCAUAACCGGUUUUGCGUCAGAUCCCUUAGGACCGGGUUCUGGUAUA [Soonlesoso]")
68.6
>>> measured_value("GGAUCCACCAGUGAUGUUGGAGAAAACUCUAAGGAUAUGACGAAAGUCAGAAGGUGGUAGACUGGACAAAGUCCGGUGGGAUCCA [FmnA10 U30+G78]")
229
>>> measured_value("UAGUAGUAGCGAGGAUAUGCAAUAGGCGAGUGAUGUUCGCCAGGCGGGCGUCGCAUAUAAGAAAGAGCAGAAGGCGCUAGGUAGA [SameState - FMN B / A]")
303
>>> measured_value("UGAUUGCCAGUGAUGUUGGCAUAUACUGAAGGAGCGCGUGAAAACGCAGGUAGGUCGCAGUUCCUUGCCAAUUGAUCGAAAGAUC [KL-XArg-A1]")
138
